# EXPERIMENT: Clearance in Sprague-Dawley rat at 10 mg/kg, po measured for 36 hrs by MRM analysis
# Format: ADME, organism-based
# CONDITION_CONTEXT: in vivo
PROPERTY_NAME: CL/F

Per the record, "Cc1cnc(Nc2ccc(S(N)(=O)=O)cc2)nc1Nc1nccs1" has CL/F of 1180 mL/min/kg

====

# EXPERIMENT: Cmax in Sprague-Dawley rat at 2 mg/kg, iv measured for 36 hrs by MRM analysis
# Assay type: ADME, organism-based
# CONDITION_CONTEXT: in vivo
PROPERTY_NAME: Cmax (ng/mL)
One number for each entry, in ng/mL.

Per the record, "Cc1cnc(Nc2ccc(S(N)(=O)=O)cc2)nc1Nc1nccs1" has Cmax of 29.1
